Where these numbers come from: patent US10781188B2

Assay: Relaxivity r1p in physiologic solution (saline), 37° C.
Type: physicochemical
Details: 0.47 T (20 MHz)
For each of the compounds below, state its r1p at 0.47 T 37° C., saline.
The reply should be a number in mM⁻¹ s⁻¹, with the unit left off.

Form field: reported r1p at 0.47 T 37° C., saline of O=C(O)CN1CCN(CC(=O)O)CCN(CC(O)CN(CC(=O)O)C2CCCCC2)CCN(CC(=O)O)CC1 (stereo not shown) [Chelate Complex 19]
6.5

Query O=C(O)CN1CCN(CC(=O)O)CCN(CC(O)CN(CC(=O)O)C(CO)CO)CCN(CC(=O)O)CC1 (stereo not shown) [Chelate Complex 13] next
5.8

Same question for O=C(O)CN1CCN(CC(=O)O)CCN(CC(O)CN2CC(CO)(CO)C(O)C(CO)(CO)C2)CCN(CC(=O)O)CC1 (stereo not shown) [Chelate Complex 5] please.
7.7

Further, for O=C(O)CN1CCN(CC(=O)O)CCN(CC(O)CN(CCOCCO)CCOCCO)CCN(CC(=O)O)CC1 (stereo not shown) [Chelate Complex 14] ?
6.9

###

Assay: Relaxivity r1p in physiologic solution (saline), 37° C.
Assay type: physicochemical
Conditions: 1.41 T (60 MHz)
Outcome: MET for r1p at 1.41 T 37° C., saline of at least 6 mM⁻¹ s⁻¹; NOT MET for anything lower.

Quick check, r1p at 1.41 T 37° C., saline >= 6 mM⁻¹ s⁻¹? O=C(O)CN1CCN(CC(=O)O)CCN(CC(O)CN2CC(CO)(CO)C(O)C(CO)(CO)C2)CCN(CC(=O)O)CC1 (stereo not shown) [Chelate Complex 5]
MET

Okay, and CC(O)CN1CCN(CC(=O)O)CCN(CC(=O)O)CCN(CC(=O)O)CC1 (stereo not shown) [ProHance ®, Gd-HPDO3A, reference compound] ?
NOT MET

Here is the next molecule: O=C([O-])CN1CCN(CC(=O)O)CCN(CC(=O)O)CCN(CC(O)CNC(CCc2ccccc2)P(=O)(O)[O+]=[Na])CC1 (stereo not shown) [Chelate Complex 6]
MET

What do you have for O=C(O)CN1CCN(CC(=O)O)CCN(CC(O)CNCP(=O)(O)O)CCN(CC(=O)O)CC1 (stereo not shown) [Chelate Complex 2] ?
MET

And the next one, NCC(O)CN1CCN(CC(=O)O)CCN(CC(=O)O)CCN(CC(=O)O)CC1 (stereo not shown) [Comparative 1, reference compound] ?
NOT MET

Could you do the same for CCOP(=O)(O)CN(Cc1ccccc1)CC(O)CN1CCN(CC(=O)O)CCN(CC(=O)O)CCN(CC(=O)O)CC1 (stereo not shown) [Chelate Complex 8] , please?
MET

###

For each record, write down the corresponding r1p at 0.47 T 37° C., human plasma.
Experiment: Relaxivity r1p in human plasma, 37° C.
Assay type: physicochemical
Conditions: 0.47 T (20 MHz)
Param answer (str): number followed by unit.

Entry O=C(O)CN1CCN(CC(=O)O)CCN(CC(O)CN2CC(CO)(CO)C(O)C(CO)(CO)C2)CCN(CC(=O)O)CC1 (stereo not shown) [Chelate Complex 5] has what r1p at 0.47 T 37° C., human plasma?
9.6 mM⁻¹ s⁻¹

What do you have for O=C(O)CN1CCN(CC(=O)O)CCN(CC(O)CN(CC(=O)O)C2CCCCC2)CCN(CC(=O)O)CC1 (stereo not shown) [Chelate Complex 19] ?
9.1 mM⁻¹ s⁻¹

Queued: O=C(O)CN1CCN(CC(=O)O)CCN(CC(O)CNCP(=O)(O)O)CCN(CC(=O)O)CC1 (stereo not shown) [Chelate Complex 2]
8.5 mM⁻¹ s⁻¹

Lookup O=C(O)CN1CCN(CC(=O)O)CCN(CC(=O)O)CCN(CC(=O)O)CC1 [Doratem ®, Gd-DOTA, reference compound]
4.5 mM⁻¹ s⁻¹

Next up: CN(CC(O)CN1CCN(CC(=O)O)CCN(CC(=O)O)CCN(CC(=O)O)CC1)CC(O)C(O)C(O)C(O)CO (stereo not shown) [Chelate Complex 21]
8.5 mM⁻¹ s⁻¹

Also O=C(O)CN1CCN(CC(=O)O)CCN(CC(O)CN(CCOCCO)CCOCCO)CCN(CC(=O)O)CC1 (stereo not shown) [Chelate Complex 14] , if possible.
8.8 mM⁻¹ s⁻¹

Now try O=C(O)CN1CCN(CC(=O)O)CCN(CC(O)CN(CC(=O)O)C(CO)CO)CCN(CC(=O)O)CC1 (stereo not shown) [Chelate Complex 13] .
7.5 mM⁻¹ s⁻¹

###

I'd be grateful if you could share measured r1p at 0.47 T 37° C., human plasma for these entries.
Experiment: Relaxivity r1p in human plasma, 37° C.
Assay type: physicochemical
Details: 0.47 T (20 MHz)
Protocol: The relaxometric properties of some representative complex compounds according to the invention have been determined at different magnetic field strengths, e.g. including 0.47 and 1.41 T, at 37° C. and in different media (physiologic solution and human plasma) and compared with relaxivity values measured, at the same conditions, for some Gd-Complex of the market having an analogous cyclic coordination cage. […]
Note: a bare number is incomplete; add the unit.

Fill in: r1p at 0.47 T 37° C., human plasma of CCOP(=O)(O)CN(Cc1ccccc1)CC(O)CN1CCN(CC(=O)O)CCN(CC(=O)O)CCN(CC(=O)O)CC1 (stereo not shown) [Chelate Complex 8] is ___
10.2 mM⁻¹ s⁻¹

Ok, now CC(O)CN1CCN(CC(=O)O)CCN(CC(=O)O)CCN(CC(=O)O)CC1 (stereo not shown) [ProHance ®, Gd-HPDO3A, reference compound]
4.9 mM⁻¹ s⁻¹

Field entry: NCC(O)CN1CCN(CC(=O)O)CCN(CC(=O)O)CCN(CC(=O)O)CC1 (stereo not shown) [Comparative 1, reference compound]
6.25 mM⁻¹ s⁻¹

One more molecule: O=C([O-])CN1CCN(CC(=O)O)CCN(CC(=O)O)CCN(CC(O)CNC(CCc2ccccc2)P(=O)(O)[O+]=[Na])CC1 (stereo not shown) [Chelate Complex 6]
13.8 mM⁻¹ s⁻¹

###

Assign r1p at 0.47 T 37° C., saline to each entry below.
Assay: Relaxivity r1p in physiologic solution (saline), 37° C.
Assay type: physicochemical
Details: 0.47 T (20 MHz)
Description: The relaxometric properties of some representative complex compounds according to the invention have been determined at different magnetic field strengths, e.g. including 0.47 and 1.41 T, at 37° C. and in different media (physiologic solution and human plasma) and compared with relaxivity values measured, at the same conditions, for some Gd-Complex of the market having an analogous cyclic coordination cage. […]
The response must be a number in mM⁻¹ s⁻¹ with no trailing unit.

What does the data say about its r1p at 0.47 T 37° C., saline? Entry: O=C(O)CN1CCN(CC(=O)O)CCN(CC(=O)O)CCN(CC(=O)O)CC1 [Doratem ®, Gd-DOTA, reference compound]
3.6

Same thing, different compound: O=C([O-])CN1CCN(CC(=O)O)CCN(CC(=O)O)CCN(CC(O)CNC(CCc2ccccc2)P(=O)(O)[O+]=[Na])CC1 (stereo not shown) [Chelate Complex 6]
8.3

Next up: O=C(O)CN1CCN(CC(=O)O)CCN(CC(O)CNCP(=O)(O)O)CCN(CC(=O)O)CC1 (stereo not shown) [Chelate Complex 2]
7.0

Entry to check: NCC(O)CN1CCN(CC(=O)O)CCN(CC(=O)O)CCN(CC(=O)O)CC1 (stereo not shown) [Comparative 1, reference compound]
4.3

Record: CCOP(=O)(O)CN(Cc1ccccc1)CC(O)CN1CCN(CC(=O)O)CCN(CC(=O)O)CCN(CC(=O)O)CC1 (stereo not shown) [Chelate Complex 8]
7.4

Likewise for CC(O)CN1CCN(CC(=O)O)CCN(CC(=O)O)CCN(CC(=O)O)CC1 (stereo not shown) [ProHance ®, Gd-HPDO3A, reference compound] ?
3.5

# iterate: CN(CC(O)CN1CCN(CC(=O)O)CCN(CC(=O)O)CCN(CC(=O)O)CC1)CC(O)C(O)C(O)C(O)CO (stereo not shown) [Chelate Complex 21]
6.1
